Molecular target: THR beta-LBD (Homo sapiens, UniProt P10828)
Construct: THR beta-LBD (the final concentration is 0.5 nM) was added to the 384-well assay plate; purchased Invitrogen PV4686
Sequence (P10828 217-461 limits assumed): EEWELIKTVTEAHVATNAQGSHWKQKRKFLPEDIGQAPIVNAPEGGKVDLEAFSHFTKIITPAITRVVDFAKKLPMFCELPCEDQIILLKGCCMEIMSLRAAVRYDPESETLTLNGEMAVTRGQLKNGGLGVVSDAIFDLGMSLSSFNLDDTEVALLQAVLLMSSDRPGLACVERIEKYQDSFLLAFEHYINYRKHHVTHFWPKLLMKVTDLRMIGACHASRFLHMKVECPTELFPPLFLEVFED
Assay: THR-β Coactivator Peptide Recruitment Assay (LanthaScreen TR-FRET)
Format: biochemical
Details: TR-FRET coactivator recruitment, THR beta-LBD 0.5 nM; read-out: THRβ EC50
pEC50: −log10 of the molar value.

[
  {
    "Compound": "O=C(NC12CC(NS(=O)(=O)c3cc(Oc4c(Cl)cc(-n5nc(C(F)F)c(=O)[nH]c5=O)cc4Cl)ccc3O)(C1)C2)C1CC1 [Compound 85]",
    "System under test": "THR beta-LBD (Homo sapiens, UniProt P10828)",
    "pEC50": "< 7.00"
  },
  {
    "Compound": "CS(=O)(=O)N1CC(NS(=O)(=O)c2cc(Oc3c(Cl)cc(-n4nc(C(F)F)c(=O)[nH]c4=O)cc3Cl)ccc2O)C1 [Compound 54]",
    "System under test": "THR beta-LBD (Homo sapiens, UniProt P10828)",
    "pEC50": "7.00 to 7.70"
  },
  {
    "Compound": "O=c1[nH]c(=O)n(-c2cc(Cl)c(Oc3cc(S(=O)(=O)N[C@H]4CC[C@@H](O)CC4)c(O)cn3)c(Cl)c2)nc1C(F)F [Compound 144]",
    "System under test": "THR beta-LBD (Homo sapiens, UniProt P10828)",
    "pEC50": "7.00 to 7.70"
  },
  {
    "Compound": "O=c1[nH]c(=O)n(-c2cc(Cl)c(Cc3cc(S(=O)(=O)N[C@H]4C[C@H](O)C4)c(O)cn3)c(Cl)c2)nc1C(F)F [Compound 156]",
    "System under test": "THR beta-LBD (Homo sapiens, UniProt P10828)",
    "pEC50": "7.70 to 8.70"
  },
  {
    "Compound": "O=C(C1CC1)N1CC(NS(=O)(=O)c2cc(Oc3c(Cl)cc(-n4nc(C(F)F)c(=O)[nH]c4=O)cc3Cl)ccc2O)C1 [Compound 52]",
    "System under test": "THR beta-LBD (Homo sapiens, UniProt P10828)",
    "pEC50": "7.00 to 7.70"
  },
  {
    "Compound": "O=c1[nH]c(=O)n(-c2cc(Cl)c(Oc3cc(S(=O)(=O)C4CCC4)c(O)cn3)c(Cl)c2)nc1C(F)F [Compound 153]",
    "System under test": "THR beta-LBD (Homo sapiens, UniProt P10828)",
    "pEC50": "> 8.70"
  },
  {
    "Compound": "CNC(=O)[C@H]1C[C@H](NS(=O)(=O)c2cc(Oc3c(Cl)cc(-n4nc(C(F)F)c(=O)[nH]c4=O)cc3Cl)ccc2O)C1 [Compound 61]",
    "System under test": "THR beta-LBD (Homo sapiens, UniProt P10828)",
    "pEC50": "7.70 to 8.70"
  },
  {
    "Compound": "O=c1[nH]c(=O)n(-c2cc(Cl)c(Oc3cc(S(=O)(=O)N[C@@H]4CC[C@@H]4O)c(O)cn3)c(Cl)c2)nc1C(F)F (stereo in doubt) [Compound 170]",
    "System under test": "THR beta-LBD (Homo sapiens, UniProt P10828)",
    "pEC50": "7.00 to 7.70"
  },
  {
    "Compound": "O=c1[nH]c(=O)n(-c2cc(Cl)c(Oc3ccc(O)c(S(=O)(=O)N4CCC(F)(F)CC4)c3)c(Cl)c2)nc1C(F)F [Compound 27]",
    "System under test": "THR beta-LBD (Homo sapiens, UniProt P10828)",
    "pEC50": "> 8.70"
  },
  {
    "Compound": "O=c1[nH]c(=O)n(-c2cc(Cl)c(Oc3cnc(O)c(S(=O)(=O)NC4CCC4)c3)c(Cl)c2)nc1C(F)F [Compound 64]",
    "System under test": "THR beta-LBD (Homo sapiens, UniProt P10828)",
    "pEC50": "< 7.00"
  },
  {
    "Compound": "O=C(CNS(=O)(=O)c1cc(Oc2c(Cl)cc(-n3nc(C(F)F)c(=O)[nH]c3=O)cc2Cl)ccc1O)NCC(F)F [Compound 88]",
    "System under test": "THR beta-LBD (Homo sapiens, UniProt P10828)",
    "pEC50": "7.00 to 7.70"
  },
  {
    "Compound": "CS(=O)(=O)c1cc(Oc2c(Cl)cc(-n3nc(C(F)F)c(=O)[nH]c3=O)cc2Cl)ncc1O [Compound 146]",
    "System under test": "THR beta-LBD (Homo sapiens, UniProt P10828)",
    "pEC50": "7.70 to 8.70"
  },
  {
    "Compound": "Cc1cc(-n2nc(C(F)F)c(=O)[nH]c2=O)cc(Cl)c1Oc1cc(S(=O)(=O)N[C@H]2C[C@H](O)C2)c(O)cn1 [Compound 167]",
    "System under test": "THR beta-LBD (Homo sapiens, UniProt P10828)",
    "pEC50": "7.70 to 8.70"
  }
]

###

biological target: THR alpha-LBD (Homo sapiens); construct: except that THR alpha-LBD of a final concentration 0.25 nM was used; purchased Invitrogen PV4687; assay: THR-α Coactivator Peptide Recruitment Assay (LanthaScreen TR-FRET); assay type: biochemical; details: TR-FRET coactivator recruitment, THR alpha-LBD 0.25 nM; read-out: THRα EC50
Sequence (P10827 163-410 isoform P10827-2 limits assumed, other chains not shown): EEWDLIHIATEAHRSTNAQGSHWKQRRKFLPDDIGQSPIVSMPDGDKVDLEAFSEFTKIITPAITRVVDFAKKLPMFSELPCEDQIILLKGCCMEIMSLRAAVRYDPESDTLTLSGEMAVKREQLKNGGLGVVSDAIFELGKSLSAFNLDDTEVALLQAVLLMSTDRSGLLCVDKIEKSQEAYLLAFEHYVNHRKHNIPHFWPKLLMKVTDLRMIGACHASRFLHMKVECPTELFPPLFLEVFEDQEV
pEC50: −log10 of the molar value.
Listing: pEC50 of selected compounds

[
  {
    "Compound": "O=c1[nH]c(=O)n(-c2cc(Cl)c(Oc3cc(S(=O)(=O)N[C@H]4C[C@@H](O)C4)c(O)cn3)c(Cl)c2)nc1C(F)F",
    "pEC50": "6.00 to 6.70"
  },
  {
    "Compound": "O=C(NC1CCC1)C1(NS(=O)(=O)c2cc(Oc3c(Cl)cc(-n4nc(C(F)F)c(=O)[nH]c4=O)cc3Cl)ncc2O)CC1",
    "pEC50": "< 6.00"
  },
  {
    "Compound": "O=c1[nH]c(=O)n(-c2cc(Cl)c(Oc3ccc(O)c(S(=O)(=O)N4CCNCC4)c3)c(Cl)c2)nc1C(F)F",
    "pEC50": "6.70 to 8.70"
  },
  {
    "Compound": "Cc1cc(-n2nc(C(F)F)c(=O)[nH]c2=O)cc(Cl)c1Oc1cc(S(=O)(=O)N[C@H]2C[C@H](O)C2)c(O)cn1",
    "pEC50": "6.00 to 6.70"
  },
  {
    "Compound": "O=c1[nH]c(=O)n(-c2cc(Cl)c(Oc3ccc(O)c(S(=O)(=O)NC4(CO)CC4)c3)c(Cl)c2)nc1C(F)F",
    "pEC50": "6.70 to 8.70"
  },
  {
    "Compound": "CNC(=O)[C@H]1C[C@H](NS(=O)(=O)c2cc(Oc3c(Cl)cc(-n4nc(C(F)F)c(=O)[nH]c4=O)cc3Cl)ccc2O)C1",
    "pEC50": "< 6.00"
  },
  {
    "Compound": "N#Cc1nn(-c2cc(Cl)c(Oc3cc(S(=O)(=O)C4CC4)c(O)cn3)c(Cl)c2)c(=O)[nH]c1=O",
    "pEC50": "6.70 to 8.70"
  },
  {
    "Compound": "O=C(NC1CCC1)c1cc(Oc2c(Cl)cc(-n3nc(C(F)(F)F)c(=O)[nH]c3=O)cc2Cl)c(F)cc1O",
    "pEC50": "< 6.00"
  },
  {
    "Compound": "O=C(CNS(=O)(=O)c1cc(Oc2c(Cl)cc(-n3nc(C(F)F)c(=O)[nH]c3=O)cc2Cl)ncc1O)NC1CCC1",
    "pEC50": "< 6.00"
  },
  {
    "Compound": "O=c1[nH]c(=O)n(-c2cc(Cl)c(Oc3ccc(O)c(S(=O)(=O)N[C@H]4C[C@H](O)C4)c3)c(Cl)c2)nc1C(F)F",
    "pEC50": "6.70 to 8.70"
  },
  {
    "Compound": "N#C[C@H]1C[C@H](NS(=O)(=O)c2cc(Oc3c(Cl)cc(-n4nc(C(F)F)c(=O)[nH]c4=O)cc3Cl)ncc2O)C1",
    "pEC50": "6.00 to 6.70"
  },
  {
    "Compound": "O=c1[nH]c(=O)n(-c2cc(Cl)c(Oc3ccc(O)c(S(=O)(=O)NC[C@H]4C[C@@H](O)C4)c3)c(Cl)c2)nc1C(F)F",
    "pEC50": "6.70 to 8.70"
  },
  {
    "Compound": "NC(=O)CNS(=O)(=O)c1cc(Oc2c(Cl)cc(-n3nc(C(F)F)c(=O)[nH]c3=O)cc2Cl)ccc1O",
    "pEC50": "6.70 to 8.70"
  },
  {
    "Compound": "CS(=O)(=O)N1CC(NS(=O)(=O)c2cc(Oc3c(Cl)cc(-n4nc(C(F)F)c(=O)[nH]c4=O)cc3Cl)ccc2O)C1",
    "pEC50": "6.00 to 6.70"
  },
  {
    "Compound": "C[C@]1(O)C[C@@H](NS(=O)(=O)c2cc(Oc3c(Cl)cc(-n4nc(C(F)F)c(=O)[nH]c4=O)cc3Cl)ncc2O)C1",
    "pEC50": "< 6.00"
  },
  {
    "Compound": "O=c1[nH]c(=O)n(-c2cc(Cl)c(Oc3ccc(O)c(S(=O)(=O)[C@H]4C[C@@H](O)C4)c3)c(Cl)c2)nc1C(F)F",
    "pEC50": "6.70 to 8.70"
  },
  {
    "Compound": "O=c1[nH]c(=O)n(-c2cc(Cl)c(Oc3cc(S(=O)(=O)N4CC(O)C4)c(O)cn3)c(Cl)c2)nc1C(F)F",
    "pEC50": "6.70 to 8.70"
  },
  {
    "Compound": "O=C(NC1CCC1)c1cc(Oc2c(Cl)cc(-n3nc(C(F)F)c(=O)[nH]c3=O)cc2Cl)ncc1O",
    "pEC50": "6.70 to 8.70"
  },
  {
    "Compound": "O=C(N1CCCC1)C1(NS(=O)(=O)c2cc(Oc3c(Cl)cc(-n4nc(C(F)F)c(=O)[nH]c4=O)cc3Cl)ccc2O)CC1",
    "pEC50": "6.00 to 6.70"
  },
  {
    "Compound": "C[C@H](CO)NS(=O)(=O)c1cc(Oc2c(Cl)cc(-n3nc(C(F)F)c(=O)[nH]c3=O)cc2Cl)ccc1O",
    "pEC50": "6.70 to 8.70"
  },
  {
    "Compound": "CS(=O)(=O)Cc1cc(Oc2c(Cl)cc(-n3nc(C(F)F)c(=O)[nH]c3=O)cc2Cl)ncc1O",
    "pEC50": "6.00 to 6.70"
  },
  {
    "Compound": "O=C(N[C@H]1CCN(S(=O)(=O)c2cc(Oc3c(Cl)cc(-n4nc(C(F)F)c(=O)[nH]c4=O)cc3Cl)ccc2O)C1)C1CC1",
    "pEC50": "6.70 to 8.70"
  },
  {
    "Compound": "O=C(CNS(=O)(=O)c1cc(Oc2c(Cl)cc(-n3nc(C(F)F)c(=O)[nH]c3=O)cc2Cl)ccc1O)NC1CC1",
    "pEC50": "6.00 to 6.70"
  },
  {
    "Compound": "C[C@]1(NS(=O)(=O)c2cc(Oc3c(Cl)cc(-n4nc(C(F)F)c(=O)[nH]c4=O)cc3Cl)ncc2O)C[C@H](O)C1",
    "pEC50": "6.70 to 8.70"
  },
  {
    "Compound": "CN1C[C@H](NS(=O)(=O)c2cc(Oc3c(Cl)cc(-n4nc(C(F)F)c(=O)[nH]c4=O)cc3Cl)ccc2O)CC1=O (single isomer, unassigned)",
    "pEC50": "6.00 to 6.70"
  },
  {
    "Compound": "CO[C@H]1C[C@H](NS(=O)(=O)c2cc(Oc3c(Cl)cc(-n4nc(C(F)F)c(=O)[nH]c4=O)cc3Cl)ncc2O)C1",
    "pEC50": "6.00 to 6.70"
  }
]
